Each record here notes measured Kd.
target: T1, human BACE1 ECD; experiment: Octet, pH 5.0
T1 construct: analyte of the Octet assay (200 nM) and enzyme of the first short substrate assay; also called human BACE1 extracellular domain
T1 sequence (single chain, as listed by the source limits assumed): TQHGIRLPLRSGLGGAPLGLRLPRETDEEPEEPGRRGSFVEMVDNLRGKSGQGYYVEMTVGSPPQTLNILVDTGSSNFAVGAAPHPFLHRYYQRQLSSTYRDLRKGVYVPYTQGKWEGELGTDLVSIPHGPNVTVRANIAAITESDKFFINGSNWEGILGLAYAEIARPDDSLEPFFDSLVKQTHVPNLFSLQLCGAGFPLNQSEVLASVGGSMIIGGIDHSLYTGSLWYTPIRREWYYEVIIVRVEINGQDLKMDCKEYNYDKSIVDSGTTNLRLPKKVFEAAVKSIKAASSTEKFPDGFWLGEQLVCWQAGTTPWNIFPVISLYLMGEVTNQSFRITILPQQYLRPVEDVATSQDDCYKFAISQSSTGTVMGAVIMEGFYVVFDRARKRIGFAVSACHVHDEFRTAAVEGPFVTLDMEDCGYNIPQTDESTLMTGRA

Some solved cases for reference:
• 6315 (antibody, V domains shown, anti-BACE1 IgG) VH: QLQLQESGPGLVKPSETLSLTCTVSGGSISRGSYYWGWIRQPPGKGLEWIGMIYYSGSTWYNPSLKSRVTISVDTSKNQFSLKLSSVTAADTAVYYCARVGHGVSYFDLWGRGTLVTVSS VL: EIVLTQSPATLSLSPGERATLSCRASQSVSSYLAWYQQKPGQAPRLLIYDASKRATGIPARFSGSGSGTDFTLTISSLEPEDFAVYYCQQSLVWPPRTFGGGAKVEIK = < 0.21 nM
• 6303 (antibody, V domains shown, anti-BACE1 IgG) VH: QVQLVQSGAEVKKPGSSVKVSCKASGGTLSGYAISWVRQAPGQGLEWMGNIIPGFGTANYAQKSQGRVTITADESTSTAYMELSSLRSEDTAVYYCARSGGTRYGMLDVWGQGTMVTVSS VL: EIVMTQSPATLSVSPGERATLSCRASQSVSSNLAWYQQKPGQAPRLLIFGASTRATGIPARFSGSGSGTEFTLTISSLQSEDFAVYYCQQLLTWPPRTFGGGTKVEIK = < 0.26 nM

Let us move to another entry and its Kd.
Reported Kd for 6314 (antibody, V domains shown, anti-BACE1 IgG) VH: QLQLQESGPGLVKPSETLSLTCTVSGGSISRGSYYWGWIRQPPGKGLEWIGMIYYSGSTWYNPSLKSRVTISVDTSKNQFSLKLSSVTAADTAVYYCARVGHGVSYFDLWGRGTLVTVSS VL: EIVLTQSPATLSLSPGERATLSCRASQSVSSYLAWYQQKPGQAPRLLIYDASNRATGIPARFSGSGSGTDFTLTISSLEPEDFAVYYCQQSIVWPPRTFGGGTKVEIK : what is it? < 0.22 nM
